Measured koff by item
Molecular target: T1, rhesus monkey ERBB3 His tag, monomeric (rhesus monkey (Macaca mulatta), UniProt P21860 20-643 (human entry), limits assumed)
T1 chain: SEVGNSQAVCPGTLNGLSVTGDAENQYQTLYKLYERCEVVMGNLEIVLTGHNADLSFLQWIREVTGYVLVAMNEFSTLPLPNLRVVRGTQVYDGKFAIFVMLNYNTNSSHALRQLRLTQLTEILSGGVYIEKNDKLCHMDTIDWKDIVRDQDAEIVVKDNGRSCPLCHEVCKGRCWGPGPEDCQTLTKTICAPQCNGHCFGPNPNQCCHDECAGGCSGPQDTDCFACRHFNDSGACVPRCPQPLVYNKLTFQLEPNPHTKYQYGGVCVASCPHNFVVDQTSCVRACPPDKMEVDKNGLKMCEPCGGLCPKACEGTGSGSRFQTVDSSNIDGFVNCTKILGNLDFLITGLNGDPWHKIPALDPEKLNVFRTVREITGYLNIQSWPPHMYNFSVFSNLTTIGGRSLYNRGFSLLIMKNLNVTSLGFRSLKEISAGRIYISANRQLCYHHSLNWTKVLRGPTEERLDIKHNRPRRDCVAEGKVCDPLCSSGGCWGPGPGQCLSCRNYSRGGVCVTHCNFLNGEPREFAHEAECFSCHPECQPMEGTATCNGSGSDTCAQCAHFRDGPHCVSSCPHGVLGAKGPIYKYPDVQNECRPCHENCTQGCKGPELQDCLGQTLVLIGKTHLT
Assay: SPR (Biacore), captured IgG, monomeric ERBB3-His analyte
Your answer is read as s⁻¹, so omit the unit and give the number.

15D03 IgG1null (antibody, V domains shown, Human IgG1null and human Ckappa) VH: QVQLVESGGGLVKPGGSLRLSCAASGFTFSDYGMSWIRQAPGKGLEWVSTISDSGSYIYYADSVKGRFTISRDNAKNSLYLQMNSLRAEDTAVYYCAREWGDYDGFDHWGQGTLVTVSS VL: DIQMTQSPSSLSASVGDRVTITCRASQEISSYLSWYQQKPGKAPKLLIYAASSLQSGVPSRFSGSGSGTDFTLTISSLQPEDFATYYCLQYDSTPLTFGGGTKVEIK: 0.0047
h24C05 IgG1null (antibody, V domains shown, Human IgG1null (L234A, L235A, G237A) and human Ckappa; also called humanized 24C05) VH: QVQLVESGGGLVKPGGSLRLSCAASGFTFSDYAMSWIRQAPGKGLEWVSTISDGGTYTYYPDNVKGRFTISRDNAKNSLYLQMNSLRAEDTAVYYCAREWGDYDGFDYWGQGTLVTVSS VL: DIQMTQSPSSLSASVGDRVTITCRASQEISGYLSWFQQKPGKAPKSLIYAASTLDSGVPSRFSGSGSGTDFTLTISSLQPEDFATYYCLQYDSYPYTFGGGTKVEIK: 0.00074
11H02 IgG1null (antibody, V domains shown, Human IgG1null and human Ckappa) VH: QVQLVESGGGLVKPGGSLRLSCAASGFTFSDYGMSWIRQAPGKGLEWVSTISDSGSYTYYADSVKGRFTISRDNAKNSLYLQMNSLRAEDTAVYYCAREWGDYDGFDNWGQGTLVTVSS VL: DIQMTQSPSSLSASVGDRVTITCRASQIISSYLSWYQQKPGKAPKLLIYAASSLDSGVPSRFSGSGSGTDFTLTISSLQPEDFATYYCLQYYSTPLTFGGGTKVEIK: 0.037
17H10 IgG1null (antibody, V domains shown, Human IgG1null and human Ckappa) VH: QVQLVESGGGLVKPGGSLRLSCAASGFTFSDYGMSWIRQAPGKGLEWVSTISDGGSYTYYADSVKGRFTISRDNAKNSLYLQMNSLRAEDTAVYYCAREWGDYDGFDEWGQGTLVTVSS VL: DIQMTQSPSSLSASVGDRVTITCRASQSISGYLSWYQQKPGKAPKLLIYAASTLQSGVPSRFSGSGSGTDFTLTISSLQPEDFATYYCLQYDSTPYTFGGGTKVEIK: 0.0018
15E02 IgG1null (antibody, V domains shown, Human IgG1null and human Ckappa) VH: QVQLVESGGGLVKPGGSLRLSCAASGFTFSDYGMSWIRQAPGKGLEWVSTISDSGTTIYYADNVKGRFTISRDNAKNSLYLQMNSLRAEDTAVYYCAREYGDYDGFDYWGQGTLVTVSS VL: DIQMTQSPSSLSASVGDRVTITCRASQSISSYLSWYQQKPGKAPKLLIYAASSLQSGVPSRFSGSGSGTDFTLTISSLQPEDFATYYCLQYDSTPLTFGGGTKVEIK: 0.0095

Query: Note down koff recorded for MH3 IgG1null (antibody, V domains shown, Designer (Maximally Humanized) clone; Human IgG1null and human Ckappa) VH: QVQLVESGGGLVKPGGSLRLSCAASGFTFSDYSMSWIRQAPGKGLEWVSTISDSGSTIYYADSVKGRFTISRDNAKNSLYLQMNSLRAEDTAVYYCAREWGDYDGFDFWGQGTLVTVSS VL: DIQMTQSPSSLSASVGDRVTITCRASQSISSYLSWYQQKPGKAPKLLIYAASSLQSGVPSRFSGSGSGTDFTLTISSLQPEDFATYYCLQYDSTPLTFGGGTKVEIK
Response: 0.011

Query: Note down koff recorded for 16B09 IgG1null (antibody, V domains shown, Human IgG1null (L234A, L235A, G237A) and human Ckappa) VH: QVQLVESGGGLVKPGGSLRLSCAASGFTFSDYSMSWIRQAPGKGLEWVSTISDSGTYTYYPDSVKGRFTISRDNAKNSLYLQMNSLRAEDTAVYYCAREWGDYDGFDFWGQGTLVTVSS VL: DIQMTQSPSSLSASVGDRVTITCRASQEISSYLSWYQQKPGKAPKLLIYAASTLQSGVPSRFSGSGSGTDFTLTISSLQPEDFATYYCLQYDSTPLTFGGGTKVEIK
Response: 0.0027
